Please go through the items and note down their neutralization IC50.
# assayed.target: HIV-1 envelope glycoprotein gp120 of virus 92US727 (HIV-1)
# method.notes: cell-based or functional assay

Recorded neutralization IC50 of 3.1.15-1 (antibody, human IgG1, kappa, V domains shown) VH: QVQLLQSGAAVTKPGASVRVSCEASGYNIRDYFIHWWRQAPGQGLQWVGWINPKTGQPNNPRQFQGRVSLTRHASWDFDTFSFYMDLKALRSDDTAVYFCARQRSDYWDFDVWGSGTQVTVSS VL: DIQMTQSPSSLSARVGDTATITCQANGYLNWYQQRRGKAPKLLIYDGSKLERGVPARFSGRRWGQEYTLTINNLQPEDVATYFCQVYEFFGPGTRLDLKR , please.
> 33 µg/mL

Further, for 1.1.118-1 (antibody, human IgG1, kappa, V domains shown) VH: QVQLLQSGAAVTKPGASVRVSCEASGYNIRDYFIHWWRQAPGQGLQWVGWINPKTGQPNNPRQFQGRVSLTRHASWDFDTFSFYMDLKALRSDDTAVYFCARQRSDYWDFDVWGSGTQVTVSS VL: DIQMTQSPSSLSASVGDRATITCQANGYLNWYQQRRGKAPKLLIYDGSKLERGVPSRFSGSRWGQEYILTISSLQPEDIATYFCQVYEFFGPGTRLDLKR ?
> 50 µg/mL

Further, for 1.1.117-1 (antibody, human IgG1, kappa, V domains shown) VH: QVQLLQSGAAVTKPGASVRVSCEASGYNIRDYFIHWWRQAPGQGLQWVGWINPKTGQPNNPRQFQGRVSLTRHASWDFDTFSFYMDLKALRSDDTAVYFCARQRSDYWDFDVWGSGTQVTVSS VL: DIQMTQSPSSLSASVGDTATITCQANGYLNWYQQRRGKAPKLLIYDGSKLERGVPSRFSGRRWGQEYILTINNLQPEDIATYFCQVYEFFGPGTRLDLKR ?
> 50 µg/mL

Further, for 3.1.17-1 (antibody, human IgG1, kappa, V domains shown) VH: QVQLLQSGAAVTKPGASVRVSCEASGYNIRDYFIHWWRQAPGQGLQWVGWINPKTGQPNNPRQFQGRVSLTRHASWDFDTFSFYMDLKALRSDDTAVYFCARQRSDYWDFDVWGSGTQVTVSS VL: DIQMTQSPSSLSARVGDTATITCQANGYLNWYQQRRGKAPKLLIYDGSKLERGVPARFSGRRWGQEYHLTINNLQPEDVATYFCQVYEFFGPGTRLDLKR ?
> 50 µg/mL

Further, for 2.2.17-1 (antibody, human IgG1, kappa, V domains shown) VH: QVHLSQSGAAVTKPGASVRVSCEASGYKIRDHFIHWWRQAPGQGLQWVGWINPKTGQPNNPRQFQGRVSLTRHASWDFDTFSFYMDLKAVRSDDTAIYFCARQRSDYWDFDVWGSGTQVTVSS VL: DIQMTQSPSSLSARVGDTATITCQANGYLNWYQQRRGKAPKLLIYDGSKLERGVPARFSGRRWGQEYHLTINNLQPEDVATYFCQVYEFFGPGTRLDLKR ?
> 50 µg/mL

Further, for 1.1.119-1 (antibody, human IgG1, kappa, V domains shown) VH: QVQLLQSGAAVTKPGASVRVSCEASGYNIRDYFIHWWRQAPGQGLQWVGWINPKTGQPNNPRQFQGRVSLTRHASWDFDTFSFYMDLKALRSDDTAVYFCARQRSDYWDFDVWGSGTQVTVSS VL: DIQMTQSPSSLSASVGDRATITCQANGYLNWYQQRRGKAPKLLIYDGSKLERGVPSRFSGSRWGQEYTLTISSLQPEDIATYFCQVYEFFGPGTRLDLKR ?
> 50 µg/mL

Further, for 3.1.13-1 (antibody, human IgG1, kappa, V domains shown) VH: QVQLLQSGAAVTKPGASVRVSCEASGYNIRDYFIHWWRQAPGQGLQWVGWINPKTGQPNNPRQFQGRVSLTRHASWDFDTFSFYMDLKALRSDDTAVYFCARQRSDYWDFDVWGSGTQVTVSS VL: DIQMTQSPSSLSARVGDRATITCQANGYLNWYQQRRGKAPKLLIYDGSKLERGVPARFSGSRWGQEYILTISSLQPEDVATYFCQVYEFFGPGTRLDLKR ?
> 21 µg/mL

Further, for 2.2.18-1 (antibody, human IgG1, kappa, V domains shown) VH: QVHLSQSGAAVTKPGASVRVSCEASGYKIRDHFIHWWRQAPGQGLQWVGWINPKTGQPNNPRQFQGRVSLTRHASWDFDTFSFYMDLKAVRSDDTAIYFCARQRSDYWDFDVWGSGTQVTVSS VL: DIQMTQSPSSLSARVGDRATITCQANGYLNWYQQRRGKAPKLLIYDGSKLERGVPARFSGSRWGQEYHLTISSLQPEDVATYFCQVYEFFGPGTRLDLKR ?
> 34 µg/mL
